test system: pseudovirus HIV-1 HXB2; experiment: organism not typed; format: cell-based; settings: anti-HIV-1 activity, single-cycle assay, TZM-bl cells, pseudovirus HIV-1 HXB2; read-out: IC50
Assignment: determine reported IC50 for the given compounds.
Give bare numbers, in µM.

Here are 5 compounds together with their reported answers.
>  <COMPOUND>
NCC(NC(=O)c1ccc(-c2ccc(Cl)cn2)[nH]1)c1nc(CO)cs1 (stereo not drawn) [Compound 15]

>  <EXPERIMENTAL_TARGET>
pseudovirus HIV-1 HXB2

>  <UNITS_TEXT>
µM

>  <IC50>
5

$$$$
>  <COMPOUND>
NCC(NC(=O)c1ccc(-c2ccc(C(F)(F)F)cn2)[nH]1)c1csc(CO)n1 (stereo not drawn)

>  <EXPERIMENTAL_TARGET>
pseudovirus HIV-1 HXB2

>  <UNITS_TEXT>
µM

>  <IC50>
1.7

$$$$
>  <COMPOUND>
NCC(NC(=O)c1ccc(-c2ccc(C(F)(F)F)cn2)[nH]1)c1ncc(CO)s1 (stereo not drawn) [Compound 6]

>  <EXPERIMENTAL_TARGET>
pseudovirus HIV-1 HXB2

>  <UNITS_TEXT>
µM

>  <IC50>
1.2

$$$$
>  <COMPOUND>
NCC(NC(=O)c1ccc(-c2ccc(C(F)(F)F)cn2)[nH]1)c1ncc(C(O)CO)s1 (stereo not drawn) [Compound 14]

>  <EXPERIMENTAL_TARGET>
pseudovirus HIV-1 HXB2

>  <UNITS_TEXT>
µM

>  <IC50>
5.9

$$$$
>  <COMPOUND>
NCC(NC(=O)c1ccc(-c2ccc(C(F)(F)F)cn2)[nH]1)c1ncc(C(O)CO)s1 (stereo not drawn) [Compound 13]

>  <EXPERIMENTAL_TARGET>
pseudovirus HIV-1 HXB2

>  <UNITS_TEXT>
µM

>  <IC50>
2.1

$$$$

stdin: # IC50 lookup, item NCC(NC(=O)c1ccc(-c2ccc(C(F)(F)F)cn2)[nH]1)c1nc(CCO)cs1 (stereo not drawn) [Compound 26]
stdout: 0.76
